Listed next: entries and their corresponding shrunken log2 fold change.
Test system: Escherichia coli TOP10
Test: shrunken log2 fold change of peptide-encoding DNA abundance (4.5 h post-induction vs induction); higher = less antimicrobial activity (less host growth inhibition)
Details: time post-induction: 4.5 h; library: site-saturation at positions 5, 18, 19, 20

>  <sequenceContent>
RRIRIRPPRLPRPRPRPTQQPRP

>  <shrunken log2 fold change>
0.0936

$$$$
>  <sequenceContent>
RRIRWRPPRLPRPRPRPPSKPRP

>  <shrunken log2 fold change>
0.104

$$$$
>  <sequenceContent>
RRIRRRPPRLPRPRPRPSVRPRP

>  <shrunken log2 fold change>
0.238

$$$$
>  <sequenceContent>
RRIRHRPPRLPRPRPRPQDHPRP

>  <shrunken log2 fold change>
-0.215

$$$$
>  <sequenceContent>
RRIRNRPPRLPRPRPRPGHKPRP

>  <shrunken log2 fold change>
0.0903

$$$$
>  <sequenceContent>
RRIRLRPPRLPRPRPRPENLPRP

>  <shrunken log2 fold change>
0.0256

$$$$
>  <sequenceContent>
RRIRNRPPRLPRPRPRPPDQPRP

>  <shrunken log2 fold change>
0.184

$$$$
>  <sequenceContent>
RRIRIRPPRLPRPRPRPLEAPRP

>  <shrunken log2 fold change>
-0.118

$$$$
>  <sequenceContent>
RRIRERPPRLPRPRPRPENTPRP

>  <shrunken log2 fold change>
-0.354

$$$$
>  <sequenceContent>
RRIRKRPPRLPRPRPRPSNSPRP

>  <shrunken log2 fold change>
0.13

$$$$
>  <sequenceContent>
RRIRRRPPRLPRPRPRPWCAPRP

>  <shrunken log2 fold change>
0.419

$$$$
>  <sequenceContent>
RRIRERPPRLPRPRPRPGNPPRP

>  <shrunken log2 fold change>
0.00298

$$$$
>  <sequenceContent>
RRIRERPPRLPRPRPRPFTSPRP

>  <shrunken log2 fold change>
-0.209

$$$$
>  <sequenceContent>
RRIRRRPPRLPRPRPRPAWLPRP

>  <shrunken log2 fold change>
0.505

$$$$
>  <sequenceContent>
RRIRERPPRLPRPRPRPNGPPRP

>  <shrunken log2 fold change>
-0.0578

$$$$

---

Catalogue of sequences with associated shrunken log2 fold change
Tested on: Escherichia coli TOP10
Experiment: shrunken log2 fold change of peptide-encoding DNA abundance (4.5 h post-induction vs induction); higher = less antimicrobial activity (less host growth inhibition)
Settings: time post-induction: 4.5 h; library: site-saturation at positions 5, 18, 19, 20
measuredAttribute: shrunken log2 fold change

>  <sequenceContent>
RRIRQRPPRLPRPRPRPLASPRP

>  <measuredAttribute>
shrunken log2 fold change

>  <valueReported>
0.00224

$$$$
>  <sequenceContent>
RRIRPRPPRLPRPRPRPEAAPRP

>  <measuredAttribute>
shrunken log2 fold change

>  <valueReported>
1.13

$$$$
>  <sequenceContent>
RRIRERPPRLPRPRPRPQYIPRP

>  <measuredAttribute>
shrunken log2 fold change

>  <valueReported>
-0.219

$$$$
>  <sequenceContent>
RRIRPRPPRLPRPRPRPTFHPRP

>  <measuredAttribute>
shrunken log2 fold change

>  <valueReported>
0.0667

$$$$
>  <sequenceContent>
RRIRSRPPRLPRPRPRPNFTPRP

>  <measuredAttribute>
shrunken log2 fold change

>  <valueReported>
-0.0286

$$$$
>  <sequenceContent>
RRIRLRPPRLPRPRPRPGEWPRP

>  <measuredAttribute>
shrunken log2 fold change

>  <valueReported>
-0.00947

$$$$
>  <sequenceContent>
RRIRCRPPRLPRPRPRPWMGPRP

>  <measuredAttribute>
shrunken log2 fold change

>  <valueReported>
0.439

$$$$
>  <sequenceContent>
RRIRNRPPRLPRPRPRPEFVPRP

>  <measuredAttribute>
shrunken log2 fold change

>  <valueReported>
0.189

$$$$
>  <sequenceContent>
RRIRGRPPRLPRPRPRPRDMPRP

>  <measuredAttribute>
shrunken log2 fold change

>  <valueReported>
0.339

$$$$
>  <sequenceContent>
RRIRIRPPRLPRPRPRPQFMPRP

>  <measuredAttribute>
shrunken log2 fold change

>  <valueReported>
-0.831

$$$$
>  <sequenceContent>
RRIRDRPPRLPRPRPRPKMRPRP

>  <measuredAttribute>
shrunken log2 fold change

>  <valueReported>
-0.013

$$$$
>  <sequenceContent>
RRIRRRPPRLPRPRPRPADQPRP

>  <measuredAttribute>
shrunken log2 fold change

>  <valueReported>
0.0865

$$$$
>  <sequenceContent>
RRIRFRPPRLPRPRPRPNAYPRP

>  <measuredAttribute>
shrunken log2 fold change

>  <valueReported>
-0.347

$$$$
>  <sequenceContent>
RRIRQRPPRLPRPRPRPWPMPRP

>  <measuredAttribute>
shrunken log2 fold change

>  <valueReported>
-0.0342

$$$$
>  <sequenceContent>
RRIRTRPPRLPRPRPRPSMHPRP

>  <measuredAttribute>
shrunken log2 fold change

>  <valueReported>
-0.152

$$$$

---

Test system: Escherichia coli TOP10;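 note: peptides expressed intracellularly from a pBAD plasmid library in pooled LB shake-flask culture, induced with 0.3% L-arabinose, DNA abundance read by NGS, three biological replicates, DESeq2 with apeglm shrinkage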
Experiment: shrunken log2 fold change of peptide-encoding DNA abundance (4.5 h post-induction vs induction); higher = less antimicrobial activity (less host growth inhibition)
Conditions: time post-induction: 4.5 h; library: site-saturation at positions 5, 18, 19, 20
measuredAttribute: shrunken log2 fold change

>  <sequenceContent>
RRIRQRPPRLPRPRPRPKRPPRP

>  <valueReported>
0.135

$$$$
>  <sequenceContent>
RRIRFRPPRLPRPRPRPRWRPRP

>  <valueReported>
0.382

$$$$
>  <sequenceContent>
RRIRRRPPRLPRPRPRPNSAPRP

>  <valueReported>
0.282

$$$$
>  <sequenceContent>
RRIRQRPPRLPRPRPRPPYKPRP

>  <valueReported>
-0.166

$$$$
>  <sequenceContent>
RRIRIRPPRLPRPRPRPPDTPRP

>  <valueReported>
-0.116

$$$$
>  <sequenceContent>
RRIRQRPPRLPRPRPRPHAVPRP

>  <valueReported>
-0.0835

$$$$
>  <sequenceContent>
RRIRPRPPRLPRPRPRPVQHPRP

>  <valueReported>
0.278

$$$$
>  <sequenceContent>
RRIRIRPPRLPRPRPRPTNSPRP

>  <valueReported>
-0.827

$$$$
>  <sequenceContent>
RRIRGRPPRLPRPRPRPNWHPRP

>  <valueReported>
0.27

$$$$
>  <sequenceContent>
RRIRWRPPRLPRPRPRPYRAPRP

>  <valueReported>
-0.399

$$$$
>  <sequenceContent>
RRIRDRPPRLPRPRPRPVPEPRP

>  <valueReported>
0.252

$$$$
>  <sequenceContent>
RRIRCRPPRLPRPRPRPNKHPRP

>  <valueReported>
-0.541

$$$$
>  <sequenceContent>
RRIRKRPPRLPRPRPRPQNDPRP

>  <valueReported>
-0.0578

$$$$
>  <sequenceContent>
RRIRCRPPRLPRPRPRPASEPRP

>  <valueReported>
0.49

$$$$
>  <sequenceContent>
RRIRGRPPRLPRPRPRPMLHPRP

>  <valueReported>
0.526

$$$$
>  <sequenceContent>
RRIRFRPPRLPRPRPRPCTHPRP

>  <valueReported>
-0.842

$$$$
>  <sequenceContent>
RRIRKRPPRLPRPRPRPMWTPRP

>  <valueReported>
0.151

$$$$
>  <sequenceContent>
RRIRLRPPRLPRPRPRPTEWPRP

>  <valueReported>
-0.0906

$$$$
>  <sequenceContent>
RRIRYRPPRLPRPRPRPFRPPRP

>  <valueReported>
-0.0325

$$$$
>  <sequenceContent>
RRIRNRPPRLPRPRPRPYDYPRP

>  <valueReported>
-0.129

$$$$
>  <sequenceContent>
RRIRARPPRLPRPRPRPATYPRP

>  <valueReported>
0.0208

$$$$
>  <sequenceContent>
RRIRQRPPRLPRPRPRPFNLPRP

>  <valueReported>
-0.649

$$$$
>  <sequenceContent>
RRIRQRPPRLPRPRPRPQDEPRP

>  <valueReported>
0.104

$$$$
>  <sequenceContent>
RRIRTRPPRLPRPRPRPLIRPRP

>  <valueReported>
-0.133

$$$$
>  <sequenceContent>
RRIRARPPRLPRPRPRPKYIPRP

>  <valueReported>
-0.536

$$$$
>  <sequenceContent>
RRIRLRPPRLPRPRPRPQAHPRP

>  <valueReported>
-0.217

$$$$
>  <sequenceContent>
RRIRERPPRLPRPRPRPVETPRP

>  <valueReported>
-0.02

$$$$
>  <sequenceContent>
RRIRTRPPRLPRPRPRPFMNPRP

>  <valueReported>
-0.787

$$$$
>  <sequenceContent>
RRIRVRPPRLPRPRPRPWNNPRP

>  <valueReported>
-0.204

$$$$
>  <sequenceContent>
RRIRPRPPRLPRPRPRPWQQPRP

>  <valueReported>
-0.0467

$$$$
>  <sequenceContent>
RRIRQRPPRLPRPRPRPFMPPRP

>  <valueReported>
-0.216

$$$$
>  <sequenceContent>
RRIRSRPPRLPRPRPRPTIHPRP

>  <valueReported>
-0.51

$$$$
